assay: NCI Yeast Anticancer Drug Screen. Data for the mec2-1 strain (AID 157); conditions: S. cerevisiae mec2-1 strain, at 50.0 µM, hits give high values
Compounds without any hit were thinned out: in the full panel of roughly 79,000, 15% have a hit.
Could you please report measured growth inhibition for the items listed next?
Hi! Could you send only the number? It should be in %, unit omitted.

## Task Query: growth inhibition; subject: O=S(=O)(O)C(Nc1ccc(Cl)cc1)c1ccccc1 (centres undefined)
## Result 6.2

## Task Note, next up: C[N+](C)(C)CC(=O)NC(=O)N/N=C\C(CC#N)CN(Cc1ccccc1)Cc1ccccc1 (centres undefined)
## Result 13.7

## Task Follow-up entry: COCCCNC(=O)C1=C(C)NC(C)=C(C(=O)NCCCOC)C1
## Result -64.2

## Task Further, for CC(C)c1ccccc1OC(=O)c1cccc(Br)c1 ?
## Result -1.95

## Task What do you get for COc1cccc(/C=C2\SC(=S)N(/C=C3\C(=O)Oc4ccccc4C3=O)C2=O)c1O ?
## Result 40.1

## Task And CC(=O)OCc1cocc1COC(C)=O ?
## Result -36

## Task Note, next up: NCCc1ccc(O)c(O)c1
## Result -4.2

## Task Field entry: CC1=C(C(=O)Nc2cc(C)ccn2)CCO1
## Result -11.4

## Task Consider next the molecule Nn1c(Cc2ccccc2)n[nH]c1=O in the same way.
## Result -13.3

## Task Next molecule up: Cc1c2cnccc2c(C)c2c1c1ccccc1n2CCNCc1ccccc1
## Result 50.4

## Task Now consider CCCCOC(=O)C(C)OC(=O)/C=C\C(=O)OC(C)C(=O)OCCCC (centres undefined) and answer again.
## Result -7.5

## Task Here is the next molecule: O=CC(NC(=O)C(O)C(O)C(O)C(O)CO)C(O)C(O)C(O)CO (centres undefined)
## Result 6.8

## Task Can you handle COc1ccc(NC(=O)C(=O)C2CNC(=O)NC2=O)c(OC)c1 (centres undefined) next?
## Result -5.8

## Task # repeat for Oc1ccccc1CNCCNCc1ccccc1O
## Result -14.1

## Task How about this molecule: CC(=O)O[C@@H]1[C@H]2[C@@H](OC(=O)c3ccccc3)[C@@H](C)C[C@]2(O)[C@H](OC(C)=O)[C@@]2(C)[C@@H]3CC(C)(C)C(=O)[C@]3(OC(C)=O)C[C@@]12C
## Result 31.1

## Task O=C1CSC(c2cccc(O)c2)N1c1nncs1 (centres undefined) ?
## Result 12.9

## Task Could you do the same for O=Cc1ccc(N2OC(c3ccc([N+](=O)[O-])cc3)C(c3ccc([N+](=O)[O-])cc3)C2c2ccc([N+](=O)[O-])cc2)cc1 (centres undefined) , please?
## Result -1.75

## Task Then what about the molecule O=P12N(CCN1c1ccccc1)CCN2c1ccccc1 ?
## Result -34.1

## Task Would you kindly repeat that for CN(CC(=O)c1ccc(I)cc1)Cc1ccccc1 ?
## Result -1.25

## Task Let us now turn to O=C1c2ccccc2C(=O)N1Nc1ccccc1
## Result 3.2

## Task Can you handle CC(=O)Oc1cc(Cl)c(Cl)cc1Cl next?
## Result 29.9

## Task Same lookup for Cn1c(=O)c2c(ncn2C2C(=O)NNC2=O)n(C)c1=O , please.
## Result -8.45

## Task What about CC(=O)Oc1cccc(O)c1 ?
## Result -3.65

## Task Follow-up entry: CCCC1(CCC)CNC(=O)NC1
## Result -3.9

## Task Same read-out for O=C(O)CC[C@H](NC(=O)c1ccc(-n2nc3ccc(O)cc3nc2=O)cc1)C(=O)O ?
## Result -8.25

## Task How about O=C(O)c1nc(-c2ccc(S(=O)(=O)O)cc2)[nH]c1C(=O)O ?
## Result -0.25

## Task Query CCCCn1cnc2c(SC(C)C)nc(N)nc21 next
## Result -2.15

## Task Likewise for COc1cc(C2C(C(=O)O)=C(CO)Oc3cc4c(cc32)OCO4)cc(OC)c1OC (centres undefined) ?
## Result 7.35

## Task // next record CCCCn1c2nc(=O)n(C)c(=O)c-2cc2ccccc21
## Result 16.7

## Task Another molecule: C[Si](C)(COC(N)=O)Cc1ccccc1
## Result -12.6

## Task Then COc1ccc(/C=C\c2cc(OC)c(OC)c(OC)c2)cc1OC ?
## Result 9.05

## Task Then this molecule: CNC1C(O)C(OC2C(N)CC(N)C(OC3OC(CN)=CCC3N)C2O)OCC1(C)O (centres undefined)
## Result -43.3

## Task Field entry: Cc1c(F)c(N)c2c(=O)cc(-c3ccc(N)c(F)c3)oc2c1F
## Result 16.1

## Task Moving on to CC(=O)NCC(O)C(O)C(O)C(O)COC(=O)c1ccccc1 (centres undefined)
## Result -1.25

## Task Proceed to Nc1ccc2ccsc2c1
## Result -22.7

## Task # iterate: O=C(NNC(=O)c1ccc(Cl)cc1Cl)c1ccc2ccccc2c1
## Result -42

## Task Another molecule to look at: O=C1OC(c2cccc(Cl)c2)=N/C1=C\c1cccc([N+](=O)[O-])c1
## Result 12.3

## Task Same for CC(C)(CN1C(=O)C(Cl)=C(Cl)C1=O)CN1C(=O)C(Cl)=C(Cl)C1=O
## Result -5.6

## Task // same read-out, input: NCCCCCCCCCCC(=O)O
## Result -7.6

###

test: NCI Yeast Anticancer Drug Screen. Data for the bub3 strain (AID 167); conditions: S. cerevisiae bub3 mutant strain, at 50.0 µM, hits give high values
Compounds without any hit were thinned out: in the full panel of roughly 79,000, 15% have a hit.
measurement name: growth inhibition (%)
Report the figure in % without appending any unit label.

## Task Param item = C=C(C)C1CCC2(CO)C(O)CC3(C)C(CCC4C5(C)CCC(O)C(C)(C)C5CCC43C)C12 (stereo not drawn) ; retrieve measured growth inhibition.
## Result 15.6

## Task Try the compound C[C@]1(CO)[C@H]2CC[C@@]34C=C[C@@](CO)(CC[C@H]3[C@]2(C)CC[C@H]1O)C4
## Result 11.7

## Task // same read-out, input: CCN(CC)c1ccc2c(c1)Oc1ccc(N(C(C)=O)c3ccccc3)cc1C21OC(=O)c2ccccc21 (stereo not drawn)
## Result 51.4

## Task Input O=C(O)c1c(Br)c(Br)c(Br)c(Br)c1C(=O)Nc1ccc(Br)cc1
## Result 2.75

## Task Item: CN(N)C(=O)Nc1cccc(Cl)c1
## Result 2.7

## Task Another compound to check: O=C(OCN1C(=O)C2C3C=CC(C2C1=O)C1C2C(=O)N(COC(=O)C4CCCN4)C(=O)C2C31)C1CCCN1 (stereo not drawn)
## Result -42.8

## Task Would you mind doing COc1cccc2cc(C(=O)Nc3ccccc3)c(=N)oc12 as well?
## Result -37.9

## Task Try the compound NC(=O)SCC(=O)Nc1ccccc1O
## Result 0.85

## Task Try Cc1cc2c(cc1N)C(C)(C)CCC2(C)C next.
## Result -11.8

## Task Then this compound: CC(=O)O[C@]12CCCCCC1C1(O)C(O)CCCC[C@H]12 (stereo partly drawn)
## Result -10.3

## Task # iterate: CCCCn1cnc2c(SC(C)C)nc(N)nc21
## Result 8.8

## Task How about CCCCCCC(N)=O ?
## Result -6.45

## Task Request: CN1C2CCC1CC(OC(c1ccccc1)c1ccccc1)C2 (stereo not drawn)
## Result 2.7

###

Experiment: NCI Yeast Anticancer Drug Screen. Data for the bub3 strain (AID 167)
Settings: S. cerevisiae bub3 mutant strain, at 50.0 µM, hits give high values
Method: Growth inhibition of yeast strains with defined genetic alterations is measured as a screen for potential anti-cancer activity. Selected strains with alterations in DNA damage repair or cell cycle control were exposed to compounds and growth inhibition was measured relative to vehicle treated controls. The strain used in this assay is bub3
The panel holds about 79,000 compounds, 15% with a hit somewhere; the sample as a whole holds those more often.
For each record, write down the corresponding growth inhibition.
Write down the numeric answer in % and omit the unit.

## Task Bench note: what growth inhibition did COc1ccc(-c2cc(-c3ccccc3)c(C#N)c(=O)[nH]2)cc1 show?
## Result 6.3

## Task Another molecule: c1ccc2oc(N3CCN(c4nc5ccccc5o4)CC3)nc2c1
## Result 12

## Task Also check COC(=O)C1(C)C(=O)NC(=O)CC1C (configuration not stated)
## Result -2.5

## Task Record: O=C(O)c1ccc(-c2ccc(C(=O)O)cc2I)c(I)c1
## Result 0.15

## Task Okay, and O=c1[nH]ncc(N/N=C(/C=C/c2ccc(C/C(=N/Nc3cn[nH]c(=O)c3Cl)c3ccccc3)cc2)c2ccccc2)c1Cl ?
## Result 9.65

## Task Then N#Cc1ccc(OCCSCCCCCCCCCCSCCOc2ccc(C#N)cc2)cc1 ?
## Result -1

## Task Same lookup for Cc1ccc(OS(=O)Nc2cccc(N)c2)cc1 (configuration not stated) , please.
## Result -8.4

## Task Further, for Cc1ccc(C)c2nc3c(C)ccc(C)c3cc12 ?
## Result -0.45

## Task Also, Cc1ccsc1/C=N/Nc1ncccn1 please.
## Result 13.9

## Task Moving on to the next molecule: CCCCCC(=O)N1CCCCC1CC (configuration not stated)
## Result -25.6

## Task Next entry: Cc1ccc(-c2oc(-c3ccc(C)cc3)c3cc(C)c(C)cc23)cc1
## Result -8.6

## Task // same read-out, input: OCCCCCOCc1ccccc1
## Result -8.65

## Task Please answer likewise for CCCC(C)C1CCC(=O)CC1 (configuration not stated)
## Result 1.95

## Task Please answer likewise for CCCCCCCCCC(O)CCCC(O)C(O)CCCCCCC(=O)O (configuration not stated)
## Result -3.05

## Task Similarly, Cc1ccccc1Nc1n[nH]c(=O)n1-c1ccccc1C ?
## Result 1.15

## Task Ok, now N#C/C(=N\Nc1ccc(F)cc1)C(=O)C1CC1
## Result 4.3

## Task Then what about the molecule Cc1cccc(C(=O)OC2CCCCC2)c1 ?
## Result 23.9

## Task One more molecule: O=C1c2c(-c3ccccc3)ccc(-c3ccccc3)c2C2(O)OC1(O)c1c(-c3ccccc3)ccc(-c3ccccc3)c1C2=O
## Result 6.4

## Task What do you get for COC(=O)/C=C(/N)CC(=O)OC ?
## Result -15.9

## Task // same read-out, input: Cc1cccc(NC(=O)/C(=N\NC(C)(C)C)C2NC(=S)NC2=O)c1C (configuration not stated)
## Result -16.4

## Task // repeat for Nc1ccc(COCCOCc2ccc(N)cc2)cc1 and report
## Result 2.8

## Task Can you check Cc1ccc2c(c1)N=C(Nc1ccccc1)N=S2(C)=O (configuration not stated) next?
## Result -7.55

## Task C[N+]1(C)C2Cc3ccccc3C1Cc1ccccc12 ?
## Result 3.75

## Task And the next one, N#C/C(=C\c1ccc2[nH]ccc2c1)C(=O)NCCCCNC(=O)/C(C#N)=C/c1ccc2[nH]ccc2c1 ?
## Result 9.65

## Task What about this molecule? CN(C)c1ccc(-c2c3ccc(Cl)cc3nc3ccc(Br)cc23)cc1
## Result -1

## Task COc1cc(C=Nc2ccc(C)c(Cl)c2)ccc1OC(=O)c1ccccc1 ?
## Result 3.5

## Task What do you have for C(=C\c1nc2ccccc2nc1/C=C/c1ccccc1)/c1ccccc1 ?
## Result 2.7

## Task Similarly, CCN(CC)CC(=N)N(CC)c1ccccc1 ?
## Result 23.8

## Task And what about the molecule Cc1cc(O)c(/C=N/C(=S)Nc2ccccc2)c(=O)o1 ?
## Result -48.2

## Task Quick one: O=C(Nc1ncnc2nc(-c3ccccc3)[nH]c12)c1ccccc1
## Result -6.65

## Task # iterate: O=C(C[n+]1ccccc1-c1ccccn1)c1ccc(-c2ccccc2)cc1
## Result 1

## Task How about this molecule: O/N=C1/CC2CCCCC2CC1(O)c1ccccc1 (configuration not stated)
## Result -3.55

## Task Next entry: O=C(OCc1ccccc1CN1CCOCC1)c1ccc(Cl)cc1
## Result 87

## Task One more molecule: O=C(O)CCN1CCSC1=O
## Result 2.35

## Task Okay, and O=C(/C=C/c1cccc2ccccc12)c1ccccc1Cl ?
## Result -6.65

## Task Could you do the same for COc1cc2c(c([N+](=O)[O-])c1)NC(=O)C(C)S2 (configuration not stated) , please?
## Result 2.15

## Task Try this molecule next: Cc1cc(=O)c2c(F)ccc(F)c2[nH]1
## Result -7.85
